Reference source for all entries: ChEMBL document CHEMBL5291721

Heads up, these molecules all have AC50 values measured for Motilin receptor (Homo sapiens).
MEASURED_ENDPOINT: AC50

- MOLECULE: "CC[C@@H](C(N)=O)N1CCCC1=O"
  DATA_VALUE: "> 30 µM"
- MOLECULE: "C#C[C@]1(O)CC[C@H]2[C@@H]3CCc4cc(OC5CCCC5)ccc4[C@H]3CC[C@@]21C [QUINESTROL]"
  DATA_VALUE: "> 10 µM"
- MOLECULE: "COc1ccc(C(=O)Nc2ccccc2CCC2CCCCN2C)cc1 (centres undefined) [ENCAINIDE]"
  DATA_VALUE: "> 10 µM"
- MOLECULE: "CC(C)C(=O)c1c(C(C)C)nn2ccccc12 [IBUDILAST]"
  DATA_VALUE: "> 30 µM"
- MOLECULE: "CO/N=C(\\C(=O)N[C@@H]1C(=O)N2C(C(=O)O)=C(CSc3nnnn3C)CS[C@H]12)c1csc(N)n1 [CEFMENOXIME]"
  DATA_VALUE: "> 30 µM"
- MOLECULE: "CN(C)CCc1c[nH]c2ccc(C[C@H]3COC(=O)N3)cc12 [ZOLMITRIPTAN]"
  DATA_VALUE: "> 30 µM"
- MOLECULE: "CN1CCC(=C2c3ccccc3CCc3sccc32)CC1 [PIZOTYLINE]"
  DATA_VALUE: "> 10 µM"
- MOLECULE: "CC(C(=O)O)c1ccc(N2Cc3ccccc3C2=O)cc1 (centres undefined) [INDOPROFEN]"
  DATA_VALUE: "> 30 µM"
- MOLECULE: "Cc1ccc(-n2nccn2)c(C(=O)N2CCN(c3nc4cc(Cl)ccc4o3)CC[C@H]2C)c1 [SUVOREXANT]"
  DATA_VALUE: "> 30 µM"
